SYSTEM UNDER TEST: T1, FZD8 CRD (Homo sapiens, UniProt Q9H461)
T1 construct: K31-D155; GPI anchor signal (C); expressed in transfected cells; host or cells: CHO cells, lentiviral pLenti-puro
T1 sequence (Q9H461 31-155): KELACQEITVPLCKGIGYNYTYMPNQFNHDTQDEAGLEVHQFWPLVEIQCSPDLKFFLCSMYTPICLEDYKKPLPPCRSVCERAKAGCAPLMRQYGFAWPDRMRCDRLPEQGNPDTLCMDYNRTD
ASSAY EXPLANATION: Flow cytometry of anti-FZD5 Fab binding to CHO cells overexpressing Frizzled CRD
Method: Plasmids: pLCKO lentiviral vector used for knockout (TKO) library construction and expression of individual gRNAs was constructed as described previously (Hart et al., 2015). […] Flow cytometry: Primary staining of cells was performed by treatment with 200 nM Frizzled profiler Fab. […] Flow cytometry was performed on a BD FACSCanto II flow cytometer (BD Biosciences), and data were analyzed with FlowJo software (FlowJo, LLC). […]
RESULT TYPE: Median fluorescence, Frizzled CRD overexpressed on CHO cells: FZD8
Give the value as a plain number.

Req: Give the measured Median fluorescence, Frizzled CRD overexpressed on CHO cells: FZD8 of Fab-2905: anti-FZD5 Fab with antibody variable region Fv-2905; CDR SEQ ID NOs: 35, 36, 44, 83, 120, 157 (antibody, V domains shown) VH: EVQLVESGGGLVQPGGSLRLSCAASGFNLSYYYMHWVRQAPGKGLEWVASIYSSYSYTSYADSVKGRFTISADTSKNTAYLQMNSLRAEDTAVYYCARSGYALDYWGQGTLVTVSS VL: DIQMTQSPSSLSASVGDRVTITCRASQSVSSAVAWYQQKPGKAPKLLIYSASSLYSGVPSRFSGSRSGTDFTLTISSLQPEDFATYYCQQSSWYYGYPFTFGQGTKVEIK .
Resp: 8.17
